target: equine serum BChE (Equus caballus, UniProt P81908); construct: We used human erythrocyte AChE, equine serum BChE, and porcine liver CaE; purchased Sigma-Aldrich (Germany); host or cells: equine serum; experiment: biochemical; settings: equine serum BChE, pH 7.5, 25 °C, 10 min pre-incubation; read-out: IC50 ± SEM, BChE
Sequence (P81908 whole entry): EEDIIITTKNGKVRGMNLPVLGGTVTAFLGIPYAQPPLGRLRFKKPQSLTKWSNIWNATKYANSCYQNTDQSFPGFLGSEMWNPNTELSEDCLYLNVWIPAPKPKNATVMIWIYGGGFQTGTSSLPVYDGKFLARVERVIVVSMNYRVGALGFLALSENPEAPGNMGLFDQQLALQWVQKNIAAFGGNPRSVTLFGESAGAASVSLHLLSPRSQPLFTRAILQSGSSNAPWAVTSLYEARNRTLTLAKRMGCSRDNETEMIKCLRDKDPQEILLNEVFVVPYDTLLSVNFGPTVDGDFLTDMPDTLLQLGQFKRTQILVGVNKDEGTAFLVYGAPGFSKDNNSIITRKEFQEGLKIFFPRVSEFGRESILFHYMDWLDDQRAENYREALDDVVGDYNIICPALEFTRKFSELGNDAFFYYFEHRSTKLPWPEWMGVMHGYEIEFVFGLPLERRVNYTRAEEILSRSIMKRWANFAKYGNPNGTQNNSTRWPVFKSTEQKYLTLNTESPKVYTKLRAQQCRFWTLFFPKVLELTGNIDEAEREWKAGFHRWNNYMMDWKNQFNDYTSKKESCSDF
test_readout: IC50

CC12CC3CC(C)(C1)CC(N)(C3)C2.Cl [Memantine]
> 20 µM

Give IC50 (equine serum BChE (Equus caballus, UniProt P81908)) of the following compound: NC12CC3CC(CC(C3)C1)C2
> 20 µM

###

target: porcine liver CaE (Sus scrofa)
Sequence (Q29550 19-566): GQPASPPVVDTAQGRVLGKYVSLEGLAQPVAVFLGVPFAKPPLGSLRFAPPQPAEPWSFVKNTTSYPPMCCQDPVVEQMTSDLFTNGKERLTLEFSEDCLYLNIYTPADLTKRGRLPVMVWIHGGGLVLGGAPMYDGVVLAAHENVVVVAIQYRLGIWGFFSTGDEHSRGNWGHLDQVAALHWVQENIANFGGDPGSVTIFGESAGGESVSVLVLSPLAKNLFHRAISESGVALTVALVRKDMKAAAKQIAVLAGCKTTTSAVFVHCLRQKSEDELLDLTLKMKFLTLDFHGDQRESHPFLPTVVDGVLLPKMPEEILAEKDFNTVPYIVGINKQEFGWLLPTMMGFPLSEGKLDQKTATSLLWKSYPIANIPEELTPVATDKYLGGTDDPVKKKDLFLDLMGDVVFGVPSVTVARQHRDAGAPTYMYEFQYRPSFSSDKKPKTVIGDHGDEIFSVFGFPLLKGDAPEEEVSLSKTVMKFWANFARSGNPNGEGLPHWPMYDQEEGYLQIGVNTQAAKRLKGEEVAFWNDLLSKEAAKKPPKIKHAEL
test_readout: IC50 (nM)
Quick note: give the figure in nM, leave out the unit.

Form: Entry = O=[N+]([O-])c1ccc(OP(=O)(O)Oc2ccc([N+](=O)[O-])cc2)cc1 [BNPP, Bis-4-nitrophenyl phosphate] | System = porcine liver CaE (Sus scrofa) | IC50 = ____
1800
